Where these numbers come from: ChEMBL document CHEMBL4739717

MEASUREMENT_TARGET: Dual specificity tyrosine-phosphorylation-regulated kinase 1A (Homo sapiens, UniProt Q13627)
PROCEDURE_SUMMARY: Inhibition of recombinant DYRK1A (unknown origin) using Ser/Thr 18 peptide as substrate incubated for 1 hr in presence of ATP by FRET assay
Can you tell me EC50 for the items I'm about to list?
// return numeric value only (unit: nM, not printed)

// query EC50 value for entry Cc1ccncc1-c1cnc2[nH]nc(-c3cc4c(-c5cccnc5)cncc4[nH]3)c2c1
17

Same question for O=C(Nc1ccc(CN2CCCC2)cc1)c1n[nH]c2ccc(-c3cnn(C4CC4)c3)cc12 please.
4

Likewise for COc1ccc(NC(=O)c2n[nH]c3ccc(-c4cncc(CO)c4)cc23)cn1 ?
1

Follow-up item: Fc1cccc(-c2cncc3[nH]c(-c4n[nH]c5ncc(-c6cncc(CN7CCCCC7)c6)cc45)cc23)c1
74

Repeat for the following compound: O=C(Nc1ccc(CN2CCCC2)cc1)c1n[nH]c2ccc(-c3cnccn3)cc12
4

Entry to check: CC(C)C(=O)Nc1cncc(-c2cnc3[nH]nc(-c4cc5c(-c6cc(F)cc(CNS(C)(=O)=O)c6)cncc5[nH]4)c3c2)c1
31

Also CS(=O)(=O)NCc1cc(F)cc(-c2cncc3[nH]c(-c4n[nH]c5ccc(-c6cncc(NC(=O)C7CCC7)c6)cc45)cc23)c1 ?
34

Here is the next compound: CC(C)CC(=O)Nc1cncc(-c2cnc3[nH]nc(-c4nc5c(-c6cccc(F)c6)cncc5[nH]4)c3c2)c1
2

Another compound to check: CN1CCC(Nc2ccc(NC(=O)c3n[nH]c4cc(F)c(-c5cnn(C)c5)cc34)cn2)CC1
2

Item: Cc1ccc(C(=O)Nc2c[nH]nc2C(=O)Nc2ccc(OCCN3CCCC3)nc2)cn1
27

Consider next the compound CC(C)CC(=O)Nc1cncc(-c2ccc3[nH]nc(-c4cc5c(-c6ccccc6F)nccc5[nH]4)c3n2)c1 in the same way.
23

Item: CN1CCN(c2cncc3[nH]c(-c4n[nH]c5ccc(-c6cccnc6)cc45)nc23)CC1
2

Quick one: O=C(Nc1cncc(-c2ccc3[nH]nc(-c4cc5c(-c6ccncc6)nccc5[nH]4)c3c2)c1)C1CCCC1
11

Can you check CCCCC(=O)Nc1cncc(-c2cnc3[nH]nc(-c4cc5cnccc5[nH]4)c3c2)c1 next?
3

Query O=C(Nc1cncc(-c2cnc3[nH]nc(-c4nc5c(-c6cccc(F)c6)cncc5[nH]4)c3c2)c1)N1CCOCC1 next
14

Then CN1CCN(c2nccc3[nH]c(-c4n[nH]c5ccc(-c6cncc(NC(=O)c7ccccc7)c6)cc45)cc23)CC1 ?
16

Can you check O=C(Nc1cncc(-c2ccc3[nH]nc(-c4nc5c(-c6cccnc6)cncc5[nH]4)c3c2)c1)c1ccccc1 next?
6

Same lookup for Nc1cncc(-c2cnc3[nH]nc(-c4nc5c(-c6ccccc6F)ccnc5[nH]4)c3c2)c1 , please.
50

Also c1cncc(-c2ccc3[nH]nc(-c4nc5c(-c6cccnc6)nccc5[nH]4)c3n2)c1 , if possible.
36

Item: Cc1n[nH]c2ccc(-c3cncc(N[C@H]4CCNC[C@@H]4F)n3)cc12
1

Same question for CCCCC(=O)Nc1cncc(-c2ccc3[nH]nc(-c4nc5c(-c6ccoc6)cncc5[nH]4)c3n2)c1 please.
92

Proceed to Cc1n[nH]c2ccc(-c3cncc(N4CCC(O)CC4)n3)cc12
22

Try this compound too: Cn1ncc(-c2ccc3cnc(NC(=O)C4CCN(C(=O)c5ccccc5)CC4)cc3c2)c1CN1CCCCC1
3

Same again, this time with Cc1n[nH]c2ccc(-c3cncc(NCC4(F)CNC4)n3)cc12
11

Then CS(=O)(=O)NCc1cc(F)cc(-c2cncc3[nH]c(-c4n[nH]c5cnc(-c6cncc(NC(=O)C7CCC7)c6)cc45)cc23)c1 ?
32

How about this compound: Cc1[nH]nc(C(=O)Nc2ccc(CN3CCCC3)cc2)c1/C=C/c1cccnc1
33

Queued: CN1CCN(c2ccnc3[nH]c(-c4n[nH]c5ccc(-c6cn[nH]c6)nc45)cc23)CC1
49

Request: Nc1cncc(-c2ccc3[nH]nc(-c4nc5c(-c6ccccc6F)ccnc5[nH]4)c3n2)c1
15

Now give it for Cc1ccncc1-c1cnc2[nH]nc(-c3nc4c(-c5cc(F)cc(CNS(C)(=O)=O)c5)nccc4[nH]3)c2c1 too.
84

Lookup O=C(Nc1cncc(-c2ccc3[nH]nc(-c4nc5c(-c6ccc(F)cc6)cncc5[nH]4)c3c2)c1)C1CCC1
73

Follow-up entry: CN1CCN(c2nccc3[nH]c(-c4n[nH]c5ncc(-c6cncc(CN7CCCCC7)c6)cc45)cc23)CC1
11

How about this compound: FC1(F)CCN(Cc2cncc(-c3cnc4[nH]nc(-c5cc6c(-c7ccncc7)cccc6[nH]5)c4c3)c2)C1
76

Now give it for c1cncc(-c2cc3c(-c4cc5cnccc5[nH]4)n[nH]c3cn2)c1 too.
2
